Test system: rat chronic carcinogenicity bioassay, TD50
test_details: DSSTox (CPDBAS) Carcinogenic Potency Database Summary Rat Bioassay Results
study_conditions: TD50_Rat_Note: TD50 is harmonic mean of more than one positive test; TargetSites_Rat_Female: esophagus; liver; small intestine; stomach; stronger effect = lower value
measurement_type: Potency

Form field - read-out: Potency; system: rat chronic carcinogenicity bioassay, TD50; submitted item: O=P(O)(OCC(Br)CBr)OCC(Br)CBr (stereo unspecified)
32 mg/kg/day

----------
System: rat chronic carcinogenicity bioassay, TD50
test_details: DSSTox (CPDBAS) Carcinogenic Potency Database Summary Rat Bioassay Results
study_conditions: TD50_Rat_Note: TD50 is harmonic mean of more than one positive test; TargetSites_Rat_Female: stomach; urinary bladder; stronger effect = lower value
measurement_type: Potency

For Nc1ccc(Cl)cc1N , what is its reported Potency?
214 mg/kg/day

----------
Test system: rat chronic carcinogenicity bioassay, TD50
test_details: DSSTox (CPDBAS) Carcinogenic Potency Database Summary Rat Bioassay Results
study_conditions: TD50_Rat_Note: TD50 is harmonic mean of more than one positive test; TargetSites_Rat_Female: nasal cavity; urinary bladder; stronger effect = lower value
measurement_type: Potency

Any idea what its Potency is? The compound is COc1ccc(C)cc1N
98 mg/kg/day

----------
System: rat chronic carcinogenicity bioassay, TD50
test_details: DSSTox (CPDBAS) Carcinogenic Potency Database Summary Rat Bioassay Results
study_conditions: TD50_Rat_Note: TD50 is harmonic mean of more than one positive test; harmonic mean of TD50 includes a value for upper 99% confidence li; TargetSites_Rat_Female: ear Zymbals gland; mammary gland; urinary bladder; stronger effect = lower value
measurement_type: Potency

What does the data say about its Potency? Entry: COc1cc2c(cc1N)oc1ccccc12
29 mg/kg/day

----------
Test system: rat chronic carcinogenicity bioassay, TD50
test_details: DSSTox (CPDBAS) Carcinogenic Potency Database Summary Rat Bioassay Results
study_conditions: TargetSites_Rat_Female: hematopoietic system; mammary gland; uterus; stronger effect = lower value
measurement_type: Potency

Consider the compound CN(C)/N=N/c1nc[nH]c1C(N)=O and give its measured Potency.
0.71 mg/kg/day

----------
Test system: rat chronic carcinogenicity bioassay, TD50
test_details: DSSTox (CPDBAS) Carcinogenic Potency Database Summary Rat Bioassay Results
study_conditions: TD50_Rat_Note: TD50 is harmonic mean of more than one positive test; TargetSites_Rat_Female: hematopoietic system; uterus; stronger effect = lower value
measurement_type: Potency

# input molecule: COc1cc(-c2ccc(N=C=O)c(OC)c2)ccc1N=C=O ; wanted: its Potency
1630 mg/kg/day

----------
System: rat chronic carcinogenicity bioassay, TD50
test_details: DSSTox (CPDBAS) Carcinogenic Potency Database Summary Rat Bioassay Results
study_conditions: TD50_Rat_Note: TD50 is harmonic mean of more than one positive test; harmonic mean of TD50 includes a value for upper 99% confidence li; TargetSites_Rat_Female: liver; vascular system; stronger effect = lower value
measurement_type: Potency

Form entry - test system: rat chronic carcinogenicity bioassay, TD50; read-out: Potency; compound: O=NN1CCCC1
0.799 mg/kg/day

----------
Can you tell me Potency for the items I'm about to list?
Tested on: rat chronic carcinogenicity bioassay, TD50
test_details: DSSTox (CPDBAS) Carcinogenic Potency Database Summary Rat Bioassay Results
study_conditions: TD50_Rat_Note: TD50 is harmonic mean of more than one positive test; greater than ten-fold variation among TD50 values for positive res; TargetSites_Rat_Female: liver; stronger effect = lower value

# example entries with known answers
molecule: FC(F)(F)C(Cl)Cl
measurement_type: Potency
endpoint_value: 2370 mg/kg/day

molecule: COC(N)=O
measurement_type: Potency
endpoint_value: 56.6 mg/kg/day

molecule: CC(C)(Oc1ccc(C2CCCc3ccccc32)cc1)C(=O)O (stereo not given)
measurement_type: Potency
endpoint_value: 11 mg/kg/day

molecule: O=c1ccc2ccccc2o1
measurement_type: Potency
endpoint_value: 39.2 mg/kg/day

Alright, here's another molecule for you.
Which Potency value is on record for Cc1cc(C)c(N=Nc2c(O)c(S(=O)(=O)O)cc3cc(S(=O)(=O)O)ccc23)cc1C ?
521 mg/kg/day

----------
Test system: rat chronic carcinogenicity bioassay, TD50
test_details: DSSTox (CPDBAS) Carcinogenic Potency Database Summary Rat Bioassay Results
study_conditions: TD50_Rat_Note: no positive results are statistically significant; TargetSites_Rat_Female: kidney; lung; stronger effect = lower value
measurement_type: Potency

Given the entry CC(=O)NCc1nc(-c2ccc([N+](=O)[O-])o2)no1 , report its measured Potency.
59.6 mg/kg/day

----------
System: rat chronic carcinogenicity bioassay, TD50
test_details: DSSTox (CPDBAS) Carcinogenic Potency Database Summary Rat Bioassay Results
study_conditions: TargetSites_Rat_Female: no positive results- CPDB evaluation based on NCI Technical Report; stronger effect = lower value
measurement_type: Potency (mg/kg/day)
Numbers only, in mg/kg/day.

Param item = CCCCOC(=O)c1ccccc1C(=O)OCc1ccccc1 ; retrieve measured Potency.
1040

----------
Field: Potency. Provide a value for each of the compounds that follow.
Test system: rat chronic carcinogenicity bioassay, TD50
test_details: DSSTox (CPDBAS) Carcinogenic Potency Database Summary Rat Bioassay Results
study_conditions: stronger effect = lower value

Report Potency for every entry below.
1. CC1CN1P(=O)(N1CC1C)N1CC1C (stereo not given)
2. NC(=O)N(CCF)N=O
3. COc1cccc(O)c1O
4. O=C1c2ccccc2C(=O)c2c(O)c(O)cc(O)c21
5. O=[N+]([O-])c1ccc2c(c1)Cc1ccccc1-2

1. 4.46 mg/kg/day
2. 0.125 mg/kg/day
3. 48.7 mg/kg/day
4. 678 mg/kg/day
5. 0.285 mg/kg/day

Hi team, please reply with Potency for each item in this list.
1. CC(N)=S
2. C#CC(OC(N)=O)(c1ccccc1)c1ccc(Cl)cc1 (stereo not given)
3. CN(CCO)N=O
4. C/C=C/C=O
5. O=[N+]([O-])c1ccc(-c2nc(N(CCO)CCO)c3ccccc3n2)s1

1. 11.5 mg/kg/day
2. 8.78 mg/kg/day
3. 1.29 mg/kg/day
4. 4.2 mg/kg/day
5. 3.14 mg/kg/day

----------
Please go through the items and note down their Potency.
Tested on: rat chronic carcinogenicity bioassay, TD50
test_details: DSSTox (CPDBAS) Carcinogenic Potency Database Summary Rat Bioassay Results
study_conditions: stronger effect = lower value

compound: CN(CCCC(=O)O)N=O
Potency: 0.982 mg/kg/day

Could you report Potency for every entry in the following list?
1. C/C=C1/C[C@@H](C)[C@](O)(CO)C(=O)OCC2=CCN3CC[C@@H](OC1=O)[C@@H]23
2. CC(C)N=[N+]([O-])C(C)C
3. CCC[C@@H]1O[C@@H]2C[C@H]3[C@@H]4CCC5=CC(=O)C=C[C@]5(C)[C@H]4[C@@H](O)C[C@]3(C)[C@]2(C(=O)CO)O1
4. CCN=[N+]([O-])CC
5. C[C@@H]1C[C@H](C)CN(S(=O)(=O)c2ccc(Cl)c(C(=O)O)c2)C1
6. CC(C(O)c1ccccc1)N(C)N=O (configuration not stated)

1. 0.862 mg/kg/day
2. 0.00268 mg/kg/day
3. 0.291 mg/kg/day
4. 0.022 mg/kg/day
5. 4.85 mg/kg/day
6. 95.2 mg/kg/day

Please look at the items below and tell me Potency for each one, in order.
1. O=C1c2cccc(O)c2C(=O)c2c(O)cccc21
2. CCCCCCCCCCN(C)N=O
3. CC[N+]([O-])=NC
4. COc1cc2c(c3oc(=O)c4c(c13)CC[C@H]4O)[C@@H]1C=CO[C@H]1O2
5. N#[N+]c1cc(CCN)ccc1[O-]

1: 245 mg/kg/day; 2: 1.26 mg/kg/day; 3: 0.0189 mg/kg/day; 4: 0.00247 mg/kg/day; 5: 37.6 mg/kg/day

----------
Test system: rat chronic carcinogenicity bioassay, TD50
test_details: DSSTox (CPDBAS) Carcinogenic Potency Database Summary Rat Bioassay Results
study_conditions: TargetSites_Rat_Female: lung; stronger effect = lower value
measurement_type: Potency

GET /values?readout=Potency&system=rat chronic carcinogenicity bioassay, TD50&item= CNc1ccc(N(CCO)CCO)cc1[N+](=O)[O-]
702 mg/kg/day

----------
System: rat chronic carcinogenicity bioassay, TD50
test_details: DSSTox (CPDBAS) Carcinogenic Potency Database Summary Rat Bioassay Results
study_conditions: TD50_Rat_Note: TD50 is harmonic mean of more than one positive test; harmonic mean of TD50 includes a value for upper 99% confidence li; TargetSites_Rat_Female: stomach; stronger effect = lower value
Please provide measured Potency for the entries that follow.

Please review the entries below; each comes with its answer.
compound: CC(C)(Oc1ccc(C2CC2(Cl)Cl)cc1)C(=O)O (centres undefined)
Potency: 1.97 mg/kg/day

compound: COc1ccc(O)c(C(C)(C)C)c1
Potency: 405 mg/kg/day

# batch size: 2; output Potency per entry
1. Oc1ccccc1O
2. Cc1ccc(O)c(O)c1

1: 71.5 mg/kg/day; 2: 248 mg/kg/day
